- System: KRAS-mutant PDC tumor spheroid with HUVEC/MSC, viability
- experimentDescription: Anticancer human tumor 327498-153-R-J2-PDC patient-derived uterine carcinosarcoma cell line growth inhibition [KRAS2]
- conditionsUsed: second compound 1 µM; first compound 0.00316 µM; hits give low values
Please go through the items and note down their viability, T/C.
One number for each entry, in %.

Field: example entries. Status: answers known.
Cn1ncnc1[C@H]1c2n[nH]c(=O)c3cc(F)cc(c23)N[C@@H]1c1ccc(F)cc1 + C=CC(=O)N1CCN(c2nc(OCC3CCCN3C)nc3c2CCN(c2cccc4cccc(C)c24)C3)CC1CC#N = 37.1
CN(C)C/C=C/C(=O)Nc1cc2c(Nc3ccc(F)c(Cl)c3)ncnc2cc1O[C@H]1CCOC1 + CC1OCC2(CCN(c3cnc(Sc4ccnc(N)c4Cl)c(N)n3)CC2)C1N = 103

Provide reported viability, T/C for each item, in the same order as listed.
1. CC(C)n1nc(-c2ccc3oc(N)nc3c2)c2c(N)ncnc21 + C=CC(=O)N1CCN(c2nc(OCC3CCCN3C)nc3c2CCN(c2cccc4cccc(C)c24)C3)CC1CC#N
2. CN(C)C/C=C/C(=O)Nc1cc2c(Nc3ccc(F)c(Cl)c3)ncnc2cc1O[C@H]1CCOC1 + CNCc1ccccc1-c1csc(C(C)Nc2nc(C)nc3cc(OC)c(OC)cc23)c1
3. CC(C)n1nc(-c2ccc3oc(N)nc3c2)c2c(N)ncnc21 + C=CC(=O)N1CCN(c2nc(=O)n(-c3c(C)ccnc3C(C)C)c3nc(-c4c(O)cccc4F)c(F)cc23)C(C)C1

Resp:
1: 22.6; 2: 64; 3: 23.5

Provide reported viability, T/C for each item, in the same order as listed.
1. CC(C)n1nc(-c2ccc3oc(N)nc3c2)c2c(N)ncnc21 + COc1cc2nc(C)nc(NC(C)c3cc(N)cc(C(F)(F)F)c3)c2cc1OC1CCOC1
2. Cn1ncnc1[C@H]1c2n[nH]c(=O)c3cc(F)cc(c23)N[C@@H]1c1ccc(F)cc1 + CNCc1ccccc1-c1csc(C(C)Nc2nc(C)nc3cc(OC)c(OC)cc23)c1
3. CCN1CCN(Cc2ccc(Nc3ncc(F)c(-c4cc(F)c5nc(C)n(C(C)C)c5c4)n3)nc2)CC1 + C=CC(=O)N1CCN(c2nc(OCC3CCCN3C)nc3c2CCN(c2cccc4cccc(C)c24)C3)CC1CC#N
4. CC(C)n1nc(-c2ccc3oc(N)nc3c2)c2c(N)ncnc21 + CNCc1ccccc1-c1csc(C(C)Nc2nc(C)nc3cc(OC)c(OC)cc23)c1
5. CC(=O)Nc1cccc(-n2c(=O)n(C3CC3)c(=O)c3c(Nc4ccc(I)cc4F)n(C)c(=O)c(C)c32)c1 + C=CC(=O)N1CCN(c2nc(=O)n(-c3c(C)ccnc3C(C)C)c3nc(-c4c(O)cccc4F)c(F)cc23)C(C)C1
6. CC(=O)Nc1cccc(-n2c(=O)n(C3CC3)c(=O)c3c(Nc4ccc(I)cc4F)n(C)c(=O)c(C)c32)c1 + CC1OCC2(CCN(c3cnc(Sc4ccnc(N)c4Cl)c(N)n3)CC2)C1N

Resp:
[40.1, 53.7, 31.1, 43.4, 53.1, 29.7]

###

- System: KRAS-mutant PDC tumor spheroid with HUVEC/MSC, viability
- experimentDescription: Anticancer human tumor 327498-153-R-J2-PDC cell line growth inhibition [KRAS2];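 note: spheroids exposed to agents for seven days before reading; 100% = DMSO vehicle wells so lower means fewer viable cells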
- conditionsUsed: compound 0.0316 µM; hits give low values
measuredParameter: viability, T/C

Field: example entries. Status: answers known.
COc1cc2nccc(Oc3ccc(NC(=O)C4(C(=O)Nc5ccc(F)cc5)CC4)cc3)c2cc1OC = 95.8% [middle of 5 runs]
CN(C)C/C=C/C(=O)Nc1cc2c(Nc3ccc(F)c(Cl)c3)ncnc2cc1O[C@H]1CCOC1 = 100% [middle of 5 runs]
O=C(c1cc(Cc2n[nH]c(=O)c3ccccc23)ccc1F)N1CCN(C(=O)C2CC2)CC1 = 108% [middle of 5 runs]
CC(=O)OC12COC1CC(O)C1(C)C(=O)C(O)C3=C(C)C(OC(=O)C(O)C(NC(=O)OC(C)(C)C)c4ccccc4)CC(O)(C(OC(=O)c4ccccc4)C21)C3(C)C (stereo not given) = 6.44% [middle of 5 runs]
CCN1CCN(Cc2ccc(Nc3ncc(F)c(-c4cc(F)c5nc(C)n(C(C)C)c5c4)n3)nc2)CC1 = 65.9% [middle of 5 runs]
CC(C)NCC(C(=O)N1CCN(c2ncnc3c2C(C)CC3O)CC1)c1ccc(Cl)cc1 (stereo not given) = 97.8% [middle of 5 runs]
CCNC(=O)CC1N=C(c2ccc(Cl)cc2)c2cc(OC)ccc2-n2c(C)nnc21 (stereo not given) = 102% [middle of 5 runs]
COc1cc(Nc2ncc3c(n2)-c2ccc(Cl)cc2C(c2c(F)cccc2OC)=NC3)ccc1C(=O)O = 19.4% [middle of 5 runs]
CC(=O)Nc1cccc(-n2c(=O)n(C3CC3)c(=O)c3c(Nc4ccc(I)cc4F)n(C)c(=O)c(C)c32)c1 = 36.9% [middle of 5 runs]
Cn1nccc1Nc1nccc(-c2cc3c(s2)C(C)(C)N(CCN2CCOCC2)C3=O)n1 = 101% [middle of 5 runs]

Provide reported viability, T/C for each item, in the same order as listed.
1. COC(=O)c1ccc2c(C(=Nc3ccc(N(C)C(=O)CN4CCN(C)CC4)cc3)c3ccccc3)c(O)[nH]c2c1
2. Cn1ncnc1[C@H]1c2n[nH]c(=O)c3cc(F)cc(c23)N[C@@H]1c1ccc(F)cc1
3. COc1cc(OC)cc(N(CCNC(C)C)c2ccc3ncc(-c4cnn(C)c4)nc3c2)c1
4. CC(C)n1nc(-c2ccc3oc(N)nc3c2)c2c(N)ncnc21
5. CC1(C)CCC(CN2CCN(c3ccc(C(=O)NS(=O)(=O)c4ccc(NCC5CCOCC5)c([N+](=O)[O-])c4)c(Oc4cnc5[nH]ccc5c4)c3)CC2)=C(c2ccc(Cl)cc2)C1

Resp:
89.5% [middle of 5 runs]
42.4% [middle of 5 runs]
73.7% [middle of 5 runs]
16% [middle of 5 runs]
101% [middle of 5 runs]
